- ASSAY TARGET: KRas G12D (Homo sapiens (Human), UniProt P01116, G12D)
- Sequence (P01116 other isoform, or with tags, fused parts or gaps G12D): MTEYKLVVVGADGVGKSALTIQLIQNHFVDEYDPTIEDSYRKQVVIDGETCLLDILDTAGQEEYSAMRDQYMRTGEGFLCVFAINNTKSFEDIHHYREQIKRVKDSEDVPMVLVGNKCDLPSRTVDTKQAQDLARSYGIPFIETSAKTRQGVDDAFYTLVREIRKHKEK
- METHOD SUMMARY: KRas G12D Binding Assay (TR-FRET displacement of Cy5 labelled tracer)
- EXPERIMENTAL CONTEXT: GDP-loaded KRAS G12D (amino acids 1:169), 60 minute incubation at 22° C.
Where a name gives a salt, the structure may show the parent alone.
ASSAY READOUT: IC50 (nM)

Fc1c(-c2cccc3ccccc23)ncc2c(N3C[C@H]4CC[C@@H](C3)N4)nc(OC[C@@H]3CCCN3Cc3ccccc3)nc12 [Example 108]; 4840
C#CCc1ccc(O)cc1-c1ncc2c(N3C[C@H]4CC[C@@H](C3)N4)nc(OCC34CCCN3CCC4)nc2c1F [Example 279]; 1.6
CCO[C@@H]1C[C@@H](COc2nc(N3C[C@H]4CC[C@@H](C3)N4)c3cnc(-c4cccc5cccc(Cl)c45)c(F)c3n2)N(C)C1 [Example 43]; 72.2
CC(C)N1CCC[C@H]1COc1nc(N2C[C@H]3CC[C@@H](C2)N3)c2cnc(-c3cccc4cccc(Cl)c34)c(F)c2n1 [Example 29]; 160
COc1c(C)cccc1-c1ncc2c(N3C[C@H]4CC[C@@H](C3)N4)nc(OCC34CCCN3CCC4)nc2c1F [Example 313]; 231
CCc1cccc2cccc(-c3ncc4c(N5CC6CCC(C5)N6)nc(OC[C@@]56C[C@H](O)CN5C[C@H](O)C6)nc4c3F)c12 [Example 466]; 0.006
Fc1c(-c2cccc3cccc(Cl)c23)ncc2c(N3C[C@H]4CC[C@@H](C3)N4)nc(OCC34CCCCN3CCC4)nc12 (stereo partly shown) [Example 54]; 68.7
C#Cc1cccc2cc(O)cc(-c3ncc4c(N5CC6CCC(C5)N6)nc(OC[C@@]56CCCN5C[C@H](OC)C6)nc4c3F)c12 (stereo in doubt) [Example 410]; 1
CCC(C)c1ccccc1-c1ncc2c(N3C[C@H]4CC[C@@H](C3)N4)nc(OCC34CCCN3CCC4)nc2c1F (stereo partly shown) [Example 300]; 768
O[C@H]1CN2CCC[C@]2(COc2nc(N3CC4CCC(C3)N4)c3cnc(-c4cccc5cccc(Cl)c45)c(F)c3n2)C1 (stereo in doubt) [Example 224, bis-hydrochloride]; 27
Cc1cc2[nH]ccc2c(-c2ncc3c(N4C[C@H]5CC[C@@H](C4)N5)nc(OCC45CCCN4CCC5)nc3c2F)c1C [Example 250]; 28.2
CN(C)C1CN(c2nc(N3C[C@H]4CC[C@@H](C3)N4)c3cnc(-c4cc(O)cc5ccccc45)c(F)c3n2)C1 [Example 120, bis(2,2,2-trifluoroacetate)]; 28.8
CC(C)c1c(Cl)cccc1-c1ncc2c(N3C[C@H]4CC[C@@H](C3)N4)nc(OCC34CCCN3CCC4)nc2c1F [Example 298]; 8.3
Oc1cc(-c2ncc3c(N4C[C@H]5CC[C@@H](C4)N5)nc(OCCN4CCOCC4)nc3c2F)c2ccccc2c1 [Example 25]; 338
CCCc1cccc2cccc(-c3ncc4c(N5C[C@H]6CC[C@@H](C5)N6)nc(OCC56CCCN5CCC6)nc4c3F)c12 [Example 254]; 6.1
Fc1ccc2cccc(-c3ncc4c(N5C[C@H]6CC[C@@H](C5)N6)nc(OCC56CCCN5CCC6)nc4c3F)c2c1 [Example 460]; 0.027
OC[C@@H]1CCCN1c1nc(N2C[C@H]3CC[C@@H](C2)N3)c2cnc(-c3cc(O)cc4ccccc34)c(F)c2n1 [Example 77]; 3140
N#C[C@H]1CCN2CCC[C@@]12COc1nc(N2CC3CCC(C2)N3)c2cnc(-c3cccc4cccc(Cl)c34)c(F)c2n1 (stereo in doubt) [Example 379]; 249
Oc1cc(-c2ncc3c(N4CC5C[C@@H](n6cncn6)C(C4)N5)nc(OC[C@@]45CCCN4C[C@H](F)C5)nc3c2F)c2ccccc2c1 (mixture of isomers) [Example 333]; 450
Fc1ccc2cccc(-c3ncc4c(N5C[C@H]6CC[C@@H](C5)N6)nc(OCC56CCCN5CCC6)nc4c3F)c2c1Cl [Example 98, bis(2,2,2-trifluoroacetate)]; 1
Oc1cc(-c2ncc3c(N4C[C@H]5CC[C@@H](C4)N5)nc(OCCCC(F)(F)F)nc3c2F)c2ccccc2c1 [Example 38]; 174
Fc1ccccc1-c1ncc2c(N3C[C@H]4CC[C@@H](C3)N4)nc(OCC34CCCN3CCC4)nc2c1F [Example 264]; 4700
Cc1ccc2[nH]ncc2c1-c1ncc2c(N3C[C@H]4CC[C@@H](C3)N4)nc(OCC34CCCN3CCC4)nc2c1F [Example 332]; 164
